# assayText: Biodistribution in NMRI mouse cerebrum at 37 MBq/mL, iv after 2 mins postinjection by gamma counting
# Format: ADME, organism-based
# appliedConditions: in vivo
measuredProperty: Drug uptake (%ID)

CNc1ccc(-c2nc3ccc(O)cc3s2)cc1 [PITTSBURGH COMPOUND B UNLABELLED] :: 1.1
[11CH3]Nc1ccc(-c2nc3cccc(O)c3s2)cc1 :: 0.83
[11CH3]Nc1ccc(-c2nc3c(O)cccc3s2)cc1 :: 1.2
[11CH3]Nc1ccc(-c2nc3cc(O)ccc3s2)cc1 :: 1.3

* * *

# System: Blood
# assayText: Biodistribution in NMRI mouse blood at 37 MBq/mL, iv after 2 mins postinjection assessed per gram of tissue by gamma counting
# Format: ADME, organism-based
# appliedConditions: in vivo
measuredProperty: Drug uptake (% ID/g)

CNc1ccc(-c2nc3ccc(O)cc3s2)cc1 [PITTSBURGH COMPOUND B UNLABELLED] :: 3.1
[11CH3]Nc1ccc(-c2nc3cc(O)ccc3s2)cc1 :: 2.5
[11CH3]Nc1ccc(-c2nc3cccc(O)c3s2)cc1 :: 4.6
[11CH3]Nc1ccc(-c2nc3c(O)cccc3s2)cc1 :: 6.5

* * *

Here the recorded Drug uptake is given for each entry.
# assayText: Biodistribution in NMRI mouse cerebrum at 37 MBq/mL, iv after 60 mins postinjection by gamma counting
# Format: ADME, organism-based
# appliedConditions: in vivo, 1 h
measuredProperty: Drug uptake (%ID)

[11CH3]Nc1ccc(-c2nc3c(O)cccc3s2)cc1 :: 0.1
[11CH3]Nc1ccc(-c2nc3cccc(O)c3s2)cc1 :: 0.05
[11CH3]Nc1ccc(-c2nc3cc(O)ccc3s2)cc1 :: 0.03
CNc1ccc(-c2nc3ccc(O)cc3s2)cc1 [PITTSBURGH COMPOUND B UNLABELLED] :: 0.2

* * *

# System: Liver
# assayText: Biodistribution in NMRI mouse liver at 37 MBq/mL, iv after 2 mins postinjection assessed per gram of tissue by gamma counting
# Type: ADME, organism-based
# appliedConditions: in vivo
Catalogue of Drug uptake readings, one per entry.
measuredProperty: Drug uptake (% ID/g)

[11CH3]Nc1ccc(-c2nc3cc(O)ccc3s2)cc1 :: 12.1
[11CH3]Nc1ccc(-c2nc3cccc(O)c3s2)cc1 :: 14.5
CNc1ccc(-c2nc3ccc(O)cc3s2)cc1 [PITTSBURGH COMPOUND B UNLABELLED] :: 7.9
[11CH3]Nc1ccc(-c2nc3c(O)cccc3s2)cc1 :: 11.1
